Provenance of the data: ChEMBL document CHEMBL5360657

So I've got a bunch of compounds here, and I need their bioavailability values.
Protocol notes: Oral bioavailability in rat at 1 mg/ml
Type: ADME, organism-based
Assay conditions: in vivo
# number only, unit % dropped from output

[ask] Record request: bioavailability value, item `Cc1cc(N2CCc3c(c(C)nn3CC34CCC(NC(=O)[C@@H]5COCCN5)(CC3)CC4)C2)c2cnn(C)c2n1`
[reply] 52

[ask] Please give the measured bioavailability for this compound: `CCNCC(=O)NC12CCC(Cn3nc(C)c4c3CCN(c3cc(C)nc5c3cnn5C)C4)(CC1)CC2`
[reply] 12

[ask] Recorded bioavailability for `CN[C@@H](C)C(=O)NC12CCC(Cn3nc(C)c4c3CCN(c3cc(C)nc5c3cnn5C)C4)(CC1)CC2` , please?
[reply] 9

###

Assayed target: Toll-like receptor 8 (Homo sapiens, UniProt Q9NR97)
Sequence (Q9NR97 whole entry): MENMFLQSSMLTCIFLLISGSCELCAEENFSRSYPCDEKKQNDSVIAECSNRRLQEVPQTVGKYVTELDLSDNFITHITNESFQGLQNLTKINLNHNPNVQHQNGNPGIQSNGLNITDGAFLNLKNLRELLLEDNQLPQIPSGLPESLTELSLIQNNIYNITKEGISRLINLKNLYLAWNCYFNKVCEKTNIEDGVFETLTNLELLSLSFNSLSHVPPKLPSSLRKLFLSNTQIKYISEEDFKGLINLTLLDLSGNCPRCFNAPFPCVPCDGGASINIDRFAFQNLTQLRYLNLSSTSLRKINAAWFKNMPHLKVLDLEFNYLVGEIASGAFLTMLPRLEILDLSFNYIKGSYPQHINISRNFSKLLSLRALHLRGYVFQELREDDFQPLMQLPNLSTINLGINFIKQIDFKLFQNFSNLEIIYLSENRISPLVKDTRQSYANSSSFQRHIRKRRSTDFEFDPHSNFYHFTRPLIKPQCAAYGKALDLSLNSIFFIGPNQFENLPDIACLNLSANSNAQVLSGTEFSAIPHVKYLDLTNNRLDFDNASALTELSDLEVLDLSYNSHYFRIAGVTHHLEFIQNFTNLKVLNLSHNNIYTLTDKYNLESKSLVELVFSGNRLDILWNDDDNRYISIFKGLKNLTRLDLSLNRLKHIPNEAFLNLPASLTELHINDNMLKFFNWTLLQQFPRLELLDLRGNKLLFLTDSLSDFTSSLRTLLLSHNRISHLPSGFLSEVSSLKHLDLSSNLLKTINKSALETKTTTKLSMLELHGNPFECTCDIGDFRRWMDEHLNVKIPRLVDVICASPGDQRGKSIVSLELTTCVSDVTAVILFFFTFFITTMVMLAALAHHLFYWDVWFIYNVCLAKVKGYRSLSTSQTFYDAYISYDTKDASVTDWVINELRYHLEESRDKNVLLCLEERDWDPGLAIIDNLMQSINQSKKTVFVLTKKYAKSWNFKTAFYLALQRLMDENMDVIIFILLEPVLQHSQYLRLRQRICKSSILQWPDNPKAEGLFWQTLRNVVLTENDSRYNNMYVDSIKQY
Protocol notes: Antagonist activity at TLR8 in human PBMC cells […] assessed as reduction in IL-6 level measured after 20 hrs by AlphaLISA assay
Assay type: cell-based
pIC50: −log10 of the molar value.
Classify by measured pIC50: yes (1) if it is equal to or exceeds 7, no (0) if it is smaller.

[ask] Is it the case that `COCCNC12CCC(Cn3nc(C)c4c3CCN(c3cc(C)nc5c3cnn5C)C4)(CC1)CC2` has pIC50 reaching or exceeding 7?
[reply] yes (1)

[ask] Does the molecule `Cc1cc(N2CCc3c(c(C)nn3CC34CCC(N)(CC3)CC4)C2)c2cnn(C)c2n1` have recorded pIC50 that is 7 or more?
[reply] no (0)

[ask] Check the entry `Cc1cc(N2CCc3c(c(C)nn3CC34CCC(NC(=O)CN(C)C)(CC3)CC4)C2)c2cnn(C)c2n1` : does pIC50 equal or exceed 7?
[reply] yes (1)

[ask] Dear colleague, could you confirm whether `Cc1cc(N2CCc3c(c(C)nn3CC34CCC(N5C[C@@H](C)O[C@@H](C)C5)(CC3)CC4)C2)c2cnn(C)c2n1` has pIC50 at or above 7?
[reply] yes (1)

[ask] Is it the case that `CN[C@H](C)C(=O)NC12CCC(Cn3nc(C)c4c3CCN(c3cc(C)nc5c3cnn5C)C4)(CC1)CC2` has pIC50 reaching or exceeding 7?
[reply] no (0)

[ask] Quick check, pIC50 >= 7? `Cc1cc(N2CCc3c(c(C)nn3CC34CCC(NS(C)(=O)=O)(CC3)CC4)C2)c2cnn(C)c2n1`
[reply] no (0)

[ask] Assess whether reported pIC50 for `CNC12CCC(Cn3nc(C)c4c3CCN(c3cc(C)nc5c3cnn5C)C4)(CC1)CC2` sits at 7 or higher.
[reply] no (0)

[ask] Can `Cc1cc(N2CCc3c(c(C)nn3CC34CCC(NC(=O)[C@H]5COCCN5)(CC3)CC4)C2)c2cnn(C)c2n1` be said to have pIC50 at or above 7?
[reply] no (0)

[ask] Does the molecule `CCN(C)CC(=O)NC12CCC(Cn3nc(C)c4c3CCN(c3cc(C)nc5c3cnn5C)C4)(CC1)CC2` have recorded pIC50 that is 7 or more?
[reply] yes (1)

[ask] Identify whether the reported pIC50 of the following molecule is 7 or greater: `Cc1cc(N2CCc3c(c(C)nn3CC34CCC(NCC(=O)N(C)C)(CC3)CC4)C2)c2cnn(C)c2n1`
[reply] no (0)

[ask] Item `CCNCC(=O)NC12CCC(Cn3nc(C)c4c3CCN(c3cc(C)nc5c3cnn5C)C4)(CC1)CC2` with pIC50 of 7 or above?
[reply] yes (1)

[ask] Please indicate if the recorded pIC50 for `Cc1cc(N2CCc3c(c(C)nn3CC34CCC(NC(=O)CN5CCC5)(CC3)CC4)C2)c2cnn(C)c2n1` meets or exceeds 7.
[reply] yes (1)

[ask] Identify whether the reported pIC50 of the following molecule is 7 or greater: `Cc1cc(N2CCc3c(c(C)nn3CC34CCC(NC5COC5)(CC3)CC4)C2)c2cnn(C)c2n1`
[reply] no (0)

[ask] Check if pIC50 >= 7 (inclusive). Item: `CC(=O)NC12CCC(Cn3nc(C)c4c3CCN(c3cc(C)nc5c3cnn5C)C4)(CC1)CC2`
[reply] no (0)

[ask] Tell me whether pIC50 is at least 7 here: `Cc1cc(N2CCc3c(c(C)nn3CC34CCC(N5CCN(C)C(=O)C5)(CC3)CC4)C2)c2cnn(C)c2n1`
[reply] no (0)

[ask] Is the recorded value of pIC50 equal to or greater than 7 for this molecule? `Cc1cc(N2CCc3c(c(C)nn3CC34CCC(N5CCOCC5)(CC3)CC4)C2)c2cnn(C)c2n1`
[reply] yes (1)

[ask] Determine whether measured pIC50 meets or exceeds 7 for `CN[C@@H](C)C(=O)NC12CCC(Cn3nc(C)c4c3CCN(c3cc(C)nc5c3cnn5C)C4)(CC1)CC2`
[reply] no (0)
